The values you see were collected from paper PMC10820861.

# testedTarget: AChE (Electrophorus electricus, UniProt O42275)
# Construct: purchased
# Sequence (O42275 24-633): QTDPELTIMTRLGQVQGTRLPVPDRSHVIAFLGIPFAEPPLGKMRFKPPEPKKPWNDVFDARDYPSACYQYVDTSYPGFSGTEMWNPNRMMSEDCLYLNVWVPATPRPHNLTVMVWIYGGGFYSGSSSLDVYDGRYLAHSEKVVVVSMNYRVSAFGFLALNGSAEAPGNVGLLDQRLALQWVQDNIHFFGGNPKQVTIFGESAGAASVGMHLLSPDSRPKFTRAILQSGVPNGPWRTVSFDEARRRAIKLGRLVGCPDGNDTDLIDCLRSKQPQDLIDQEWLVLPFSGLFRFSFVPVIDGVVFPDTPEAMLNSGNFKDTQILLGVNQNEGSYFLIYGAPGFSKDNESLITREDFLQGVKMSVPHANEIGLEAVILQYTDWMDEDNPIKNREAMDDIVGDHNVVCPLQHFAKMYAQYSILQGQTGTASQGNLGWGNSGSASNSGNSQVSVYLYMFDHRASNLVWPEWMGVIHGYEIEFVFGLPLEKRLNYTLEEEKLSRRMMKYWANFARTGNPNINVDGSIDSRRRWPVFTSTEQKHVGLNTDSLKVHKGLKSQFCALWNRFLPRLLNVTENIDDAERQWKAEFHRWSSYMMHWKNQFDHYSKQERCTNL
# procedureDetails: biochemical
# runConditions: IC50 (AChE inhibition), mean ± SD
Parameter pIC50: see the listing below.
On this scale, pIC50 is minus log10 of a concentration expressed in M (mol/L).

molecule	pIC50
COc1cc([C@H]2OC[C@H]3[C@@H]2CO[C@@H]3c2ccc(O)c(OC)c2)ccc1O (relative stereo) [Compound 2, pinoresinol]	6.53

Query molecule follows.
Reported AChE (Electrophorus electricus, UniProt O42275) pIC50 for item COc1cc([C@H]2OC[C@H]3[C@@H]2CO[C@H]3c2ccc(O)c(OC)c2)ccc1O (relative stereo) [Compound 3, epipinoresinol] was 6.62

* * *

Parameter inhibition at 1 µM: see the listing below.
# testedTarget: AChE (Electrophorus electricus)
# Construct: purchased
# procedureDetails: biochemical
# runConditions: read-out: % Inhibition of AChE
# Description: The preparation of the sample was the same as has been previously described. The AChE-inhibitory effect of the furofuranoid lignans 1–5 was determined using an AChE inhibitor screening kit (the Quanti-Chrome assay kit). […] The 96-well plate reaction was prepared according to the manufacturer’s protocol.
Numbers only here, please. The scale is %.

compound	inhibition at 1 µM [%]
COc1cc([C@H]2OC[C@H]3[C@@H]2CO[C@@H]3c2ccc(O[C@@H]3O[C@H](CO)[C@@H](O)[C@H](O)[C@H]3O)c(OC)c2)ccc1O [Compound 5, pinoresinol 4-O-β-D-glucoside]	79
COc1cc([C@H]2OC[C@H]3[C@@H]2CO[C@@H]3c2cc(OC)c3c(c2)[C@H](CO)[C@@H](c2ccc(O[C@@H]4O[C@H](CO)[C@@H](O)[C@H](O)[C@H]4O)c(OC)c2)O3)ccc1O	75
COc1cc([C@H]2OC[C@H]3[C@@H]2CO[C@H]3c2ccc(O)c(OC)c2)ccc1O (relative stereo) [Compound 3, epipinoresinol]	60

Query compound follows.
COc1cc([C@H]2OC[C@H]3[C@@H]2CO[C@@H]3c2ccc(O)c(OC)c2)ccc1O (relative stereo) has a reported inhibition at 1 µM of 60

* * *

# testedTarget: AChE (Electrophorus electricus)
# Construct: purchased
# procedureDetails: biochemical
# runConditions: read-out: % Inhibition of AChE
recordedEndpoint: inhibition at 10 µM (%)
Numbers only here, please. The scale is %.

Reported AChE (Electrophorus electricus) inhibition at 10 µM for item COc1cc([C@H]2OC[C@H]3[C@@H]2CO[C@H]3c2ccc(O)c(OC)c2)ccc1O (relative stereo) [Compound 3, epipinoresinol] was 82

Reported AChE (Electrophorus electricus) inhibition at 10 µM for item COc1cc([C@H]2OC[C@H]3[C@@H]2CO[C@@H]3c2ccc(O)c(OC)c2)ccc1O (relative stereo) was 75

Reported AChE (Electrophorus electricus) inhibition at 10 µM for item COc1cc([C@H]2OC[C@H]3[C@@H]2CO[C@@H]3c2ccc(O[C@@H]3O[C@H](CO)[C@@H](O)[C@H](O)[C@H]3O)c(OC)c2)ccc1O [Compound 5, pinoresinol 4-O-β-D-glucoside] was 88

Reported AChE (Electrophorus electricus) inhibition at 10 µM for item "COc1cc([C@H]2OC[C@H]3[C@@H]2CO[C@@H]3c2cc(OC)c3c(c2)[C@H](CO)[C@@H](c2ccc(O[C@@H]4O[C@H](CO)[C@@H](O)[C@H](O)[C@H]4O)c(OC)c2)O3)ccc1O" was 83
